Test: Fluorescence excitation and emission spectra of camptothecin drugs free in solution and bound to liposomes
Format: physicochemical
Conditions: pH 7.4, 2 μM drug, PBS, 37° C.
Structures can show the parent of a compound that is named as a salt.
Readout name: λMAX excitation (nm)

>>> recorded_value("CCC1(O)C(=O)OCc2c1cc1n(c2=O)Cc2cc3c(N)cccc3nc2-1 (stereo not drawn)")
381
>>> recorded_value("CC[C@@]1(O)C(=O)OCc2c1cc1n(c2=O)Cc2cc3ccccc3nc2-1")
366
>>> recorded_value("CCC1(O)C(=O)OCc2c1cc1n(c2=O)Cc2cc3cc(O)ccc3nc2-1 (stereo not drawn) [10-hydroxycamptothecin]")
392
>>> recorded_value("CCC1(O)C(=O)OCc2c1cc1n(c2=O)Cc2cc3cc4c(cc3nc2-1)OCO4 (stereo not drawn)")
395
>>> recorded_value("CC[C@@]1(O)C(=O)OCc2c1cc1n(c2=O)Cc2cc3c(CN(C)C)c(O)ccc3nc2-1")
410
>>> recorded_value("CCC1(O)C(=O)OCc2c1cc1n(c2=O)Cc2cc3c(Cl)c4c(cc3nc2-1)OCO4 (stereo not drawn)")
394
>>> recorded_value("CCC(O)(C(=O)O)c1cc2n(c(=O)c1CO)Cc1cc3ccccc3nc1-2 (stereo not drawn) [camptothecin carboxylate, camptothecin carboxylate sodium salt]")
377
>>> recorded_value("CCC1(O)C(=O)OCc2c1cc1n(c2=O)Cc2cc3c(N)c4c(cc3nc2-1)OCO4 (stereo not drawn)")
404
>>> recorded_value("CCC1(O)C(=O)OCc2c1cc1n(c2=O)Cc2cc3c([N+](=O)[O-])cccc3nc2-1 (stereo not drawn)")
378
